tested on: C=C(OP(=O)(O)O)C(=O)O; assay: purified protein, by the assay type; conditions: other: pH 7.5, 1 mM S3P
Provide the recorded kcat/Km for the entries that follow.
Write down the numeric answer in M⁻¹ s⁻¹ and omit the unit.

Output reported kcat/Km of the substance bacterial EPSP synthase DGT-18 (GENBANK NP_928909.1) variant DGT-18 v6 (G→A at residue 96), SEQ ID NO:9 (Photorhabdus laumondii subsp. laumondii TTO1; G96A) on C=C(OP(=O)(O)O)C(=O)O.
40000

Output reported kcat/Km of the substance bacterial EPSP synthase DGT-30 (GENBANK ZP_02156189.1) variant DGT-30 v6 (G→A at residue 96), SEQ ID NO:13 (Shewanella benthica KT99; G96A) on C=C(OP(=O)(O)O)C(=O)O.
30000

Output reported kcat/Km of the substance bacterial EPSP synthase DGT-11 v6, native (GENBANK YP_989551.1), SEQ ID NO:5 (Bartonella bacilliformis INS) on C=C(OP(=O)(O)O)C(=O)O.
50

Output reported kcat/Km of the substance bacterial EPSP synthase DGT-29 (GENBANK YP_322772.1) variant DGT-29 v6 (G→A at residue 96), SEQ ID NO:11 (Trichormus variabilis ATCC 29413; G96A) on C=C(OP(=O)(O)O)C(=O)O.
4000

----------
biological target: Triticum aestivum (wheat) EPSP synthase DGT-7 variant DGT-7 v8 (T→I, P→S; TIPS) (Triticum aestivum, UniProt B5M6A1, P172S/T168I); construct: TIPS double mutant; experiment: In vitro kinetic assay (inorganic phosphate production, malachite green); type: biochemical; conditions: IC50 (glyphosate), at 1 mM PEP; values greater than 50 are estimates
Sequence (B5M6A1 entry or part of it T168I/P172S): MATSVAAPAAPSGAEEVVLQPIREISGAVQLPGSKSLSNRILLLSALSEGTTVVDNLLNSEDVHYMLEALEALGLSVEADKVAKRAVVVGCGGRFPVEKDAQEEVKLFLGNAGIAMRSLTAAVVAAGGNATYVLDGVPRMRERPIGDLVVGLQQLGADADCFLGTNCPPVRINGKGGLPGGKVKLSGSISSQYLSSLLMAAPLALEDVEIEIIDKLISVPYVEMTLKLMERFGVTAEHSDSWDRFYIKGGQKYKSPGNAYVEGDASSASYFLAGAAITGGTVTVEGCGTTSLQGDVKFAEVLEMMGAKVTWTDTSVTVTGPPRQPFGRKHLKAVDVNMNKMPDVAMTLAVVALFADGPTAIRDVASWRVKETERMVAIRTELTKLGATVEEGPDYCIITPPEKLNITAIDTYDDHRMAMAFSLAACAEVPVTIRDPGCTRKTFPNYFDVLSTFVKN
Property measured: IC50

Supply reported IC50 belonging to this compound: O=C(O)CNCP(=O)(O)O [glyphosate, N-(phosphonomethyl)glycine]
> 80 mM

----------
Biological target: Triticum aestivum (wheat) EPSP synthase DGT-7 variant DGT-7 v6 (G→A) (Triticum aestivum, UniProt B5M6A1, G167A)
Sequence (B5M6A1 entry or part of it G167A): as the sequence (B5M6A1 entry or part of it T168I/P172S) above, with G113A, I114T, S118P counted along it
Assay: In vitro kinetic assay (inorganic phosphate production, malachite green)
Type: biochemical
Conditions: IC50 (glyphosate), at 60 μM PEP
Description: The following Class I enzymes: DGT-1 from Glycine max, DGT-3 from Brassica napus (GENBANK ACC NO: P17688), and DGT-7 from Triticum aestivum (GENBANK ACC NO: EU977181) were used as a comparison. The Class I EPSP synthase enzymes and mutant variants thereof were synthesized and evaluated. […]
Property measured: pIC50
# log scale: pIC50 equals minus log10 of the concentration in mol/L

Supply reported pIC50 belonging to this compound: O=C(O)CNCP(=O)(O)O [glyphosate, N-(phosphonomethyl)glycine]
1.82

----------
target: Brassica napus (canola) EPSP synthase DGT-3 (GENBANK P17688) variant DGT-3 v8 (T→I, P→S; TIPS) (Brassica napus, UniProt P17688, P178S/T174I); construct: made in house; host or cells: E. coli Rosetta2 (DE3); test: In vitro kinetic assay (inorganic phosphate production, malachite green); format: biochemical; conditions: IC50 (glyphosate), at 60 μM PEP
Sequence (P17688 73-516 T174I/P178S, one chain of several): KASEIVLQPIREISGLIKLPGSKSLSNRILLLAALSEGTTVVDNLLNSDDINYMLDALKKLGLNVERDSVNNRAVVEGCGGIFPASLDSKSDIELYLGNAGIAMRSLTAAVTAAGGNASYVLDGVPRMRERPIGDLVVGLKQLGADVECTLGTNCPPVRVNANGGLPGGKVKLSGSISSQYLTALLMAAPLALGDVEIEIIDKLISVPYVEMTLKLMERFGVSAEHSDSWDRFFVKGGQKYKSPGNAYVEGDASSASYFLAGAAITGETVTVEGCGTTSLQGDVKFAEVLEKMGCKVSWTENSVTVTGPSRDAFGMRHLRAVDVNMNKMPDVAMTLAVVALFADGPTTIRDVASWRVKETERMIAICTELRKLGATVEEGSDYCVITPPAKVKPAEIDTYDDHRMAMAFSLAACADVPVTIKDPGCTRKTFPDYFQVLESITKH
Property measured: IC50

Supply reported IC50 belonging to this molecule: O=C(O)CNCP(=O)(O)O [glyphosate, N-(phosphonomethyl)glycine]
4.8 mM

----------
target: Brassica napus (canola) EPSP synthase DGT-3 (GENBANK P17688) variant DGT-3 v6 (G→A) (Brassica napus, UniProt P17688, G173A); construct: made in house; host or cells: E. coli Rosetta2 (DE3); assay: In vitro kinetic assay (inorganic phosphate production, malachite green); type: biochemical; conditions: IC50 (glyphosate), at 1 mM PEP
Sequence (P17688 73-516 G173A, one chain of several): as the sequence (P17688 73-516 T174I/P178S, one chain of several) above, with G101A, I102T, S106P counted along it
Property measured: pIC50
# log scale: pIC50 equals minus log10 of the concentration in mol/L

Supply reported pIC50 belonging to this molecule: O=C(O)CNCP(=O)(O)O [glyphosate, N-(phosphonomethyl)glycine]
1.80
